Target: Focal adhesion kinase 1 (Homo sapiens)
Test: PTK2 protein binding on printed compound slides – biochemical, small-molecule microarray, 635/667 nm fluorescence, BSA, DTT, primary screen (AID 1130);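 note: composite of spot emission at 667 nm and signal to noise over triplicate slides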
Conditions: 635 nm fluorescence, higher = more signal

{"Compound": "CCOC1=C2C(c3ccc(C)cc3)N(S(=O)(=O)c3ccc(C)cc3)CC2n2c(=O)n(-c3ccccc3)c(=O)n2C1 (centres undefined)", "composite z-score": 0.206}
{"Compound": "C[C@H]1C2[C@H](Cc3ccccc3)NC(=O)[C@]23C(=O)N[C@H](Cc2ccccc2)C(=O)N[C@H](Cc2ccccc2)C(=O)NC/C=C/CCC/C=C/C3[C@@H]2O[C@]12C (some centres undefined)", "composite z-score": 0.0256}
{"Compound": "C=C(C)[C@@H]1CC=C(C(O)C2C=CC3C(=O)N(Cc4ccccc4)C(=O)C3N2n2cnnc2)CC1 (some centres undefined)", "composite z-score": 0.0147}
{"Compound": "C=CCN1Cc2ccccc2C[C@@]2(COC(c3ccc(OCCCO)cc3)=N2)C1=O", "composite z-score": 0.92}
{"Compound": "O=C1OCC=C[C@H]2OC34C=CCN(c5ccc6ccccc6c5)C(=O)[C@H]3N(CCO)C(=O)[C@@H]4[C@@H]12 (some centres undefined)", "composite z-score": -0.415}
{"Compound": "CCCCN1CC=CC23O[C@@H]4/C=C\\CCCOC(=O)C4[C@H]2C(=O)N(C(C)CO)[C@@H]3C1=O (some centres undefined)", "composite z-score": -0.56}
{"Compound": "Cc1ccc(F)cc1S(=O)(=O)N[C@@H]1CCN(Cc2ccc(C(F)(F)F)cc2)C1", "composite z-score": -0.0343}
{"Compound": "CC(=O)NCCCC[C@@H]1NC(=O)[C@@H]2C[C@H](C(=O)NCCCCCC[N+](C)(C)C)[C@H](c3cccc(OCCO)c3)N2C1=O", "composite z-score": 0.202}
{"Compound": "O=C1C2C=CC(C(O)c3cccc4ccccc34)N(n3cnnc3)C2C(=O)N1Cc1ccccc1 (centres undefined)", "composite z-score": 0.699}
{"Compound": "COCCOC(=O)N1C(=O)[C@@]2(c3cc(C#CC4=CCCCC4)ccc31)[C@H](C(=O)N1CCN(c3ncccn3)CC1)[C@H]1C(=O)O[C@H](c3ccccc3)[C@H](c3ccccc3)N1[C@@H]2c1ccc(OCCO)cc1", "composite z-score": 0.31}
{"Compound": "CC(C)(C)OC(=O)CC[C@@]1(C(=O)NCC(O)CO)N=C(c2ccc(OCCCO)cc2)O[C@@H]1c1ccccc1 (some centres undefined)", "composite z-score": 0.415}
{"Compound": "C=CC[C@@]1(C(=O)NCCN2CCOCC2)N=C(c2ccc(OCCCO)cc2)O[C@@H]1c1ccccc1CN=[N+]=[N-]", "composite z-score": 0.269}
{"Compound": "O=C(NCC(O)CO)[C@]1(CCS(=O)(=O)c2ccccc2)N=C(c2ccc(OCCCO)cc2)O[C@@H]1c1ccccc1 (some centres undefined)", "composite z-score": 0.516}
{"Compound": "COCCOC(=O)N1C(=O)[C@@]2(c3cc(C#CCC(C(=O)OC)C(=O)OC)ccc31)[C@H](c1ccccc1OCCO)N1[C@H](c3ccccc3)[C@H](c3ccccc3)OC(=O)[C@H]1[C@@H]2C(=O)Nc1nc2ccccc2s1", "composite z-score": 0.767}
